biological target: human TRPM8 (Homo sapiens); assay: Luminescence readout assay for measuring intracellular calcium (aequorin), hTRPM8 antagonism; settings: CHO cell line expressing human TRPM8 and aequorin; activation by icilin, L-menthol or cold buffer (table does not say which)
Group membership follows IC50 per the scheme 0 = under 100 nM, 1 = from 100 nM up to 2000 nM, 2 = 2000 nM and over

Field: example entries. Status: answers known.
>>> class_label("CC(C)(C)NC(=O)N[C@@H](c1ccc(C(F)(F)F)cc1)c1ncccc1C(F)(F)F [Example 45]")
0
>>> class_label("COc1ccc(NC(=O)N[C@@H](c2ccc(C(F)(F)F)cc2)c2ncccc2C(F)(F)F)cc1OC [Example 74, acetate]")
1
>>> class_label("COC(=O)c1ccccc1NC(=O)N[C@@H](c1ccc(C(F)(F)F)cc1)c1ncccc1F [Example 118]")
1
>>> class_label("CCOC(=O)C(NC(=O)N[C@@H](c1ccc(C(F)(F)F)cc1)c1ncccc1C(F)(F)F)C(C)C (stereo partly drawn) [Example 98, acetate]")
2
>>> class_label("CCOC(=O)CNC(=O)N[C@@H](c1ccc(C(F)(F)F)cc1)c1ncccc1C(F)(F)F [Example 38, acetate]")
1

Ask: Lab log: CCCC[C@H](C)NC(=O)N[C@@H](c1ccc(C(F)(F)F)cc1)c1ncccc1C(F)(F)F [Example 83, acetate] — assign IC50 category
Result: 1

Ask: Class for O=C(NCCCc1ccccc1)N[C@@H](c1ccc(C(F)(F)F)cc1)c1ncccc1C(F)(F)F [Example 34, acetate] ?
Result: 1

Ask: For O=C(Nc1cccnc1)N[C@@H](c1ccc(C(F)(F)F)cc1)c1ncccc1C(F)(F)F [Example 44] , which IC50 bin applies?
Result: 0

Ask: Which class does Cc1c(NC(=O)N[C@@H](c2ccc(C(F)(F)F)cc2)c2ncccc2C(F)(F)F)cccc1[N+](=O)[O-] [Example 142, acetate] fall in?
Result: 2

###

Quick list: IC50 per entry.
target: human TRPM8 (Homo sapiens, UniProt Q7Z2W7); experiment: Luminescence readout assay for measuring intracellular calcium (aequorin), hTRPM8 antagonism; conditions: CHO cell line expressing human TRPM8 and aequorin; activation by icilin, L-menthol or cold buffer (table does not say which)
Sequence (Q7Z2W7 whole entry): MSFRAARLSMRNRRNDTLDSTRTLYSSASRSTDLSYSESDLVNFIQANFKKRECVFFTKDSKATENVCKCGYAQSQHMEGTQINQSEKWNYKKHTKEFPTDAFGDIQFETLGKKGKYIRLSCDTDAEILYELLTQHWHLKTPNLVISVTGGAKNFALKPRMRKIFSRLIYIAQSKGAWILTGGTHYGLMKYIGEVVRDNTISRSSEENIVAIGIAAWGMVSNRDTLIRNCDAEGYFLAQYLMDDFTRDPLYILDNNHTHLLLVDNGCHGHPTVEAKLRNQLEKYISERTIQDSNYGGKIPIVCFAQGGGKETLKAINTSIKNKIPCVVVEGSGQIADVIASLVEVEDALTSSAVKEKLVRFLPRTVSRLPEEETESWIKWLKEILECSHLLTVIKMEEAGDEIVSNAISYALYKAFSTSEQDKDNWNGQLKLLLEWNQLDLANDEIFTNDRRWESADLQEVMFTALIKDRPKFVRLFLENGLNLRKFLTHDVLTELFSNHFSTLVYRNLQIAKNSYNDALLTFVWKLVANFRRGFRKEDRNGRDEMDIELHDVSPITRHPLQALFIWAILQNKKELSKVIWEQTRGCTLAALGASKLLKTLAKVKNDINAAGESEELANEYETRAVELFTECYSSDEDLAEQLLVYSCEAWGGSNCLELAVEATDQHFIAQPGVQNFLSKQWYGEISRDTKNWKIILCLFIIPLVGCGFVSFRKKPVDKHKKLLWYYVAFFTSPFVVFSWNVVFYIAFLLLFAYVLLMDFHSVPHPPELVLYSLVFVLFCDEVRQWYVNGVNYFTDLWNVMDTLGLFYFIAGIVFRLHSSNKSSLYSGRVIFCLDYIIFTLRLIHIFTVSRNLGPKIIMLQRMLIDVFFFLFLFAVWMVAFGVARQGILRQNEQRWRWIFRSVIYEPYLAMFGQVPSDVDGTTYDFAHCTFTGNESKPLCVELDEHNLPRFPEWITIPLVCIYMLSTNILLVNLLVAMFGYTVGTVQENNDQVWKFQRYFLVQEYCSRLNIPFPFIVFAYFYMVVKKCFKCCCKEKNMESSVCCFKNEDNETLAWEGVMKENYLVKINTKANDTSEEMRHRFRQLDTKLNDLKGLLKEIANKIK
Quick note: give the figure in nM, leave out the unit.

Examples with answers:
>>> readout_value("O=C(NC1CCOC1)N[C@@H](c1ccc(C(F)(F)F)cc1)c1ncccc1C(F)(F)F (some centres unmarked)")
676
>>> readout_value("COc1ccc2cc([C@H](NC(=O)Nc3cccnc3)c3ncccc3C(F)(F)F)cnc2c1")
308

GET /value?item= `O=C(Nc1cccnc1)N[C@@H](c1ccc(C(F)(F)F)c(F)c1)c1ncccc1F` &field=IC50 returns 17

For record `O=C(Nc1ccnc2ccccc12)N[C@@H](c1ccc(C(F)(F)F)cc1)c1ncccc1C(F)(F)F` the listed IC50 is 182

Lab book: IC50 of O=C(Nc1cccc(Br)c1)N[C@@H](c1ccc(C(F)(F)F)cc1)c1ncccc1C(F)(F)F [Example 37, acetate] noted as 4080

###

target: human TRPM8 (Homo sapiens); assay: Luminescence readout assay for measuring intracellular calcium (aequorin), hTRPM8 antagonism; conditions: CHO cell line expressing human TRPM8 and aequorin; activation by icilin, L-menthol or cold buffer (table does not say which)
Metric: log10 IC50 (log10 of the value in nM)
Use the decimal logarithm of IC50 (nM).

// log10 IC50 lookup, compound = O=C(NCC1CCCCC1)N[C@@H](c1ccc(C(F)(F)F)cc1)c1ncccc1C(F)(F)F [Example 127, acetate] , result: 2.82

Looking up Cn1ccc(NC(=O)N[C@@H](c2ccc(C(F)(F)F)cc2)c2ncccc2F)cc1=O [Example 161] , I found its log10 IC50 recorded as 3.10

So, Cc1cccc(C(C)C)c1NC(=O)N[C@@H](c1ccc(C(F)(F)F)cc1)c1ncccc1C(F)(F)F [Example 92, acetate] ? Its log10 IC50 was 2.85

Recorded log10 IC50 (compound Cc1noc(-c2ccccc2)c1NC(=O)N[C@@H](c1ccc(C(F)(F)F)cc1)c1ncccc1C(F)(F)F [Example 69, acetate] ): 2.89

// field: log10 IC50; key: CCOC(=O)CCNC(=O)N[C@@H](c1ccc(C(F)(F)F)cc1)c1ncccc1C(F)(F)F [Example 66, acetate] ; value = 2.96

The measured log10 IC50 associated with CCc1ccc([C@H](NC(=O)Nc2cccnc2)c2ncccc2C(F)(F)F)cc1 [Example 27] reads 1.61

The compound listed as CC(C)(C)Cc1cccnc1[C@@H](NC(=O)Nc1cccnc1)c1ccc(C(F)(F)F)cc1 [Example 62] shows log10 IC50 equal to 3.29

The reported log10 IC50 of the compound O=C(Nc1ccccc1)N[C@@H](c1ccc(C(F)(F)F)cc1)c1ncccc1C(F)(F)F [Example 31] was 1.91

Briefly, log10 IC50 measured for O=C(Nc1ccc2ncccc2c1)N[C@@H](c1ccc(C(F)(F)F)cc1)c1ncccc1C(F)(F)F [Example 58] : 2.75

Per the records, this compound ( O=C(NC1CCCOC1)N[C@@H](c1ccc(C(F)(F)F)cc1)c1ncccc1C(F)(F)F (some centres unmarked) [Example 54] ) has log10 IC50 equal to 2.60

// O=C1Cc2ccc(NC(=O)N[C@@H](c3ccc(C(F)(F)F)cc3)c3ncccc3F)cc2N1 [Example 166] : log10 IC50 value = 1.93
